Provide the recorded normalized RNA/DNA level with ligand (log10) for the entries that follow.
B1: library; a variant is named by its letters at N, in order (parent)
chain: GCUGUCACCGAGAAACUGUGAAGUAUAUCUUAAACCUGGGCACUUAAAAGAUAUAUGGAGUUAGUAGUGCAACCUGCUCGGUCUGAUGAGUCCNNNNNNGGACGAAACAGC

- Variants of: B1
- Method Notes: normalized RNA/DNA level with ligand (relative to sTRSVctl = 100) (log10 (% of sTRSVctl)); HEK293T; ligand: cyclic di-GMP (c-di-GMP-II aptamer); ligand concentration (+) RNA-Seq: 1 mM; higher = less ribozyme self-cleavage, higher mRNA level
- Study Conditions: reporter: mCherry (pCS4076), ligand present: yes
Give bare numbers.

Solved entries:
Mutation List	Result Number
ACUGUU	1.67
AGUUGU	1.85
AAUUUU	1.85
GGUACC	1.93
CACCGG	1.89
CGGCGC	1.94
ACGGCA	1.77
CGAAGA	1.65
ACUAAG	1.71
CCACUG	1.63

Parameters: items (list). Returns: normalized RNA/DNA level with ligand (log10) for each item.
1. AUCCGC
2. GUUUCA
3. UGCUAC
4. UCUGCG
5. UGAUAA
6. CUCGAG
7. GGAUCC

**A:**
[1.88, 1.79, 1.85, 1.85, 1.8, 1.86, 1.93]
